Give IC50 for every item shown.
- TARGET DESC: GSK3b (GST-full length GSK3b) (Homo sapiens (Human))
- Sequence (P49841 whole entry): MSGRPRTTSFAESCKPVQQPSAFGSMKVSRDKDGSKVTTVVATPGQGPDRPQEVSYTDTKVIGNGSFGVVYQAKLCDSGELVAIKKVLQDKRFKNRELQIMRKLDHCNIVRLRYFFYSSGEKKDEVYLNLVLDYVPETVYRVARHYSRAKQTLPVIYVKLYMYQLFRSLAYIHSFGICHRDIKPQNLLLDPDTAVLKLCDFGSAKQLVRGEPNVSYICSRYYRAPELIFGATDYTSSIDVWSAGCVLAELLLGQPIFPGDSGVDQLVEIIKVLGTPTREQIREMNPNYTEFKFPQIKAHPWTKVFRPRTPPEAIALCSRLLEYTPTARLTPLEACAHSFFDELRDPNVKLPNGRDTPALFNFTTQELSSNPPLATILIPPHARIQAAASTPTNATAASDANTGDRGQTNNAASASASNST
- METHOD: GSK3b TR-FRET kinase assay
- Type: biochemical
- COND: GSK3-B (TR-FRET 1 mM ATP); GMean; IC50, 1 mM ATP; geometric mean

State its IC50 on GSK3b (GST-full length GSK3b) (Homo sapiens (Human)): CC1(C)CC(=O)C2=C(C1)Nc1n[nH]cc1C21CCN(S(=O)(=O)C2CCOCC2)CC1 100 to 1000 nM

State its IC50 on GSK3b (GST-full length GSK3b) (Homo sapiens (Human)): CC1(C)CC(=O)C2=C(C1)Nc1n[nH]cc1C21CCN(S(=O)(=O)CC2CC2)CC1 100 to 1000 nM

State its IC50 on GSK3b (GST-full length GSK3b) (Homo sapiens (Human)): CC1(C)CC(=O)C2=C(C1)Nc1n[nH]cc1C21CCC(C(F)(F)F)CC1 (centres unmarked) 1000 to 5000 nM

State its IC50 on GSK3b (GST-full length GSK3b) (Homo sapiens (Human)): COc1cc(S(=O)(=O)N2CCC3(CC2)C2=C(CC(C)(C)CC2=O)Nc2n[nH]cc23)ccc1F 1000 to 5000 nM

State its IC50 on GSK3b (GST-full length GSK3b) (Homo sapiens (Human)): CC[C@]1(c2cccc(-c3ccnn3C3CC3(F)F)c2)C2=C(CC(C)(C)NC2=O)Nc2n[nH]cc21 (some centres unmarked) 100 to 1000 nM

State its IC50 on GSK3b (GST-full length GSK3b) (Homo sapiens (Human)): Cn1cc(S(=O)(=O)N2CC[C@]3(C2)C2=C(CC(C)(C)CC2=O)Nc2n[nH]cc23)cn1 1000 to 5000 nM

State its IC50 on GSK3b (GST-full length GSK3b) (Homo sapiens (Human)): CC1(C)CC(=O)C2=C(C1)Nc1n[nH]cc1[C@]21C[C@@H](c2ccncc2)C1 100 to 1000 nM

State its IC50 on GSK3b (GST-full length GSK3b) (Homo sapiens (Human)): COc1cccc(S(=O)(=O)N2CCC3(CC2)C2=C(CC(C)(C)CC2=O)Nc2n[nH]cc23)c1F 100 to 1000 nM

State its IC50 on GSK3b (GST-full length GSK3b) (Homo sapiens (Human)): CC1(C)CC(=O)C2=C(C1)Nc1n[nH]cc1C21CCN(S(=O)(=O)c2cc(F)ccc2F)CC1 100 to 1000 nM

State its IC50 on GSK3b (GST-full length GSK3b) (Homo sapiens (Human)): Cc1cccc(S(=O)(=O)N2CC[C@]3(C2)C2=C(CC(C)(C)CC2=O)Nc2n[nH]cc23)c1 100 to 1000 nM

State its IC50 on GSK3b (GST-full length GSK3b) (Homo sapiens (Human)): COc1cncc(F)c1-c1cccc([C@]2(C)C3=C(CC(C)(C)CC3=O)Nc3n[nH]c(CC(C)(C)C)c32)c1 100 to 1000 nM

State its IC50 on GSK3b (GST-full length GSK3b) (Homo sapiens (Human)): CC1(C)CC(=O)C2=C(C1)Nc1n[nH]cc1C21CCN(S(=O)(=O)C2CCCC2)CC1 100 to 1000 nM

State its IC50 on GSK3b (GST-full length GSK3b) (Homo sapiens (Human)): CC1(C)CC(=O)C2=C(C1)Nc1n[nH]cc1C21CCN(S(=O)(=O)c2ccc(OC(F)F)cc2)CC1 100 to 1000 nM

State its IC50 on GSK3b (GST-full length GSK3b) (Homo sapiens (Human)): CC[C@]1(c2cccc(C(F)(F)F)c2)C2=C(Nc3n[nH]cc31)c1ccccc1C2=O 100 to 1000 nM

State its IC50 on GSK3b (GST-full length GSK3b) (Homo sapiens (Human)): CC1(C)CC(=O)C2=C(C1)Nc1n[nH]cc1C21CCN(S(=O)(=O)c2cnc3cccnn23)CC1 1000 to 5000 nM

State its IC50 on GSK3b (GST-full length GSK3b) (Homo sapiens (Human)): CC1(C)CC(=O)C2=C(C1)Nc1n[nH]cc1C21CCN(S(=O)(=O)c2ccc(F)cc2)CC1 1000 to 5000 nM

State its IC50 on GSK3b (GST-full length GSK3b) (Homo sapiens (Human)): CC1(C)CC(=O)C2=C(C1)Nc1n[nH]cc1[C@]21CCN(S(=O)(=O)c2cccc(F)c2)C1 100 to 1000 nM

State its IC50 on GSK3b (GST-full length GSK3b) (Homo sapiens (Human)): CC1(C)CC(=O)C2=C(C1)Nc1n[nH]cc1[C@@]21CC[C@@H](C(F)(F)F)C1 1000 to 5000 nM

State its IC50 on GSK3b (GST-full length GSK3b) (Homo sapiens (Human)): CC1(C)CC(=O)C2=C(C1)Nc1n[nH]cc1C21CCN(S(=O)(=O)c2cccc(Cl)c2F)CC1 100 to 1000 nM

State its IC50 on GSK3b (GST-full length GSK3b) (Homo sapiens (Human)): CCOc1cccc(S(=O)(=O)N2CCC3(CC2)C2=C(CC(C)(C)CC2=O)Nc2n[nH]cc23)c1 1000 to 5000 nM

State its IC50 on GSK3b (GST-full length GSK3b) (Homo sapiens (Human)): CC(C)S(=O)(=O)N1CCC2(CC1)C1=C(Nc3n[nH]cc32)[C@H](F)C(C)(C)CC1=O 1000 to 5000 nM

State its IC50 on GSK3b (GST-full length GSK3b) (Homo sapiens (Human)): CC(C)S(=O)(=O)N1CCC2(CC1)C1=C(Nc3n[nH]cc32)[C@@H](F)C(C)(C)CC1=O 100 to 1000 nM

State its IC50 on GSK3b (GST-full length GSK3b) (Homo sapiens (Human)): CC1(C)CC(=O)C2=C(C1)Nc1n[nH]cc1C21CCN(S(=O)(=O)C2CCCCC2)CC1 100 to 1000 nM

State its IC50 on GSK3b (GST-full length GSK3b) (Homo sapiens (Human)): CCC1(c2cccc(C(F)(F)F)c2)C2=C(Nc3n[nH]cc31)C(F)C(C)(C)CC2=O (single isomer, unassigned) [Compound 837683] > 5000 nM

State its IC50 on GSK3b (GST-full length GSK3b) (Homo sapiens (Human)): CC1(C)CC(=O)C2=C(Nc3n[nH]cc3[C@]23CC[C@@H](C(F)(F)F)CC3)[C@H]1F > 5000 nM

State its IC50 on GSK3b (GST-full length GSK3b) (Homo sapiens (Human)): COc1cccc(S(=O)(=O)N2CC[C@]3(C2)C2=C(CC(C)(C)CC2=O)Nc2n[nH]cc23)c1 100 to 1000 nM

State its IC50 on GSK3b (GST-full length GSK3b) (Homo sapiens (Human)): CC1(C)CC(=O)C2=C(C1)Nc1n[nH]cc1[C@]21CCN(S(=O)(=O)c2ccccc2)C1 [Compound 951787] 100 to 1000 nM

State its IC50 on GSK3b (GST-full length GSK3b) (Homo sapiens (Human)): CC1(C)CC(=O)C2=C(C1)Nc1n[nH]cc1C21CCN(S(=O)(=O)Cc2ccccc2)CC1 100 to 1000 nM

State its IC50 on GSK3b (GST-full length GSK3b) (Homo sapiens (Human)): CC1(C)CC(=O)C2=C(C1)Nc1n[nH]c(C3CC3)c1C21CN(S(=O)(=O)CC2CC2)C1 100 to 1000 nM

* * *

- TARGET DESC: GSK3α (GST-full length GSK3α) (Homo sapiens (Human), UniProt P49840)
- Sequence (P49840 whole entry): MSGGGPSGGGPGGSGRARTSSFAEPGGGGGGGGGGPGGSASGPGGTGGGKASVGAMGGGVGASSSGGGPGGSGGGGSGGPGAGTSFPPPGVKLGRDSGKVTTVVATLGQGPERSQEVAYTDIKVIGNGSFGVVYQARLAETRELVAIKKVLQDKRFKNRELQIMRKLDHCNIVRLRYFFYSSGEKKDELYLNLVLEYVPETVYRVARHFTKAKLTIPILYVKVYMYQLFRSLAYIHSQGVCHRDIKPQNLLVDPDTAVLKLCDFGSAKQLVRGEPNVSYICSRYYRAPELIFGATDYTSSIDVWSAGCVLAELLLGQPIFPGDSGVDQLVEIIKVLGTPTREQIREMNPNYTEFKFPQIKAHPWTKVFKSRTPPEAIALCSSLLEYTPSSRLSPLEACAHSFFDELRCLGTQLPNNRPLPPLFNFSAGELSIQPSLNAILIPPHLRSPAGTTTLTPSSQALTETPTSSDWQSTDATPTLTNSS
- METHOD: GSK3α TR-FRET kinase assay
- Format: biochemical
- COND: read-out: GSK3-A (TR-FRET 1 mM ATP); GMean; IC50; 1 mM ATP; geometric mean
RECORDED ENDPOINT: IC50

Which IC50 is listed for CCC1(c2cccc(S(C)(=O)=O)c2)C2=C(CC(C)(C)NC2=O)Nc2n[nH]c(C)c21 (stereo not drawn) ? 100 to 1000 nM

Which IC50 is listed for CC[C@]1(c2cccc(-c3ccncc3C(F)(F)F)c2)C2=C(CC(C)(C)NC2=O)Nc2n[nH]cc21 ? ≤ 100 nM

Which IC50 is listed for CCC1(c2cccc(-c3cn(C)nc3C)c2)C2=C(CC(C)(C)N(C)C2=O)Nc2n[nH]cc21 (stereo not drawn) ? ≤ 100 nM

Which IC50 is listed for CC(C)(C)Cc1[nH]nc2c1C1(CCN(c3ccccc3)CC1)C1=C(CC(C)(C)CC1=O)N2 ? > 5000 nM

Which IC50 is listed for CCC1(c2cccc(OC(C)C)c2)C2=C(CC(C)(C)CC2=O)Nc2[nH]nc(C(F)(F)F)c21 (stereo not drawn) ? ≤ 100 nM

Which IC50 is listed for CC[C@@]1(c2cccc(C(F)(F)F)c2)C2=C(CC3(CCC3)NC2=O)Nc2n[nH]cc21 ? 100 to 1000 nM

Which IC50 is listed for CCC1(c2ccccc2)C2=C(CC(C)(C)CC2=O)Nc2n[nH]c(C(F)F)c21 (stereo not drawn) ? 100 to 1000 nM

Which IC50 is listed for Cc1ccc(C(=O)N2CC3(C2)CC2(CO3)C3=C(CC(C)(C)CC3=O)Nc3n[nH]cc32)cc1C (stereo not drawn) ? ≤ 100 nM

Which IC50 is listed for CCC1(c2cccc(N(C)C(=O)c3cnn(C)c3)c2)C2=C(CC(C)(C)CC2=O)Nc2n[nH]cc21 (stereo not drawn) ? > 5000 nM

Which IC50 is listed for CC[C@@]1(c2cccc(C(F)F)c2)C2=C(CC(C)(C)CC2=O)Nc2n[nH]cc21 ? 100 to 1000 nM

Which IC50 is listed for CCC1(c2cccc(-c3c(C)nnn3C)c2)C2=C(CC(C)(C)CC2=O)Nc2n[nH]cc21 (stereo not drawn) ? ≤ 100 nM

Which IC50 is listed for CCC1(c2cccc(S(=O)(=O)C3CC3)c2)C2=C(CC(C)(C)NC2=O)Nc2n[nH]c(C(F)(F)F)c21 (stereo not drawn) ? ≤ 100 nM

Which IC50 is listed for CCC1(c2cccc(-c3ccncc3F)c2)C2=C(CC(C)(C)CC2=O)Nc2n[nH]cc21 (stereo not drawn) ? ≤ 100 nM

Which IC50 is listed for CCC1(c2cccc(C3CCOCC3)c2)C2=C(CC(C)(C)CC2=O)Nc2n[nH]cc21 (stereo not drawn) ? 100 to 1000 nM

Which IC50 is listed for CCC1(c2cccc(-c3c(C)cncc3C)c2)C2=C(CC(C)(C)CC2=O)Nc2n[nH]cc21 (stereo not drawn) ? ≤ 100 nM
